Sourced from the supplement of paper PMC10567573

B1: KCNA4 (parent)
chain: YQLGEEALLKFREDEGFVREEEDR

variants of: B1; experiment: protein stability index of a GFP-peptide fusion (GPS, HEK-293T) (PSI 1-6); higher = more stable; details: c terminus: a fixed tail appended;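 further: lentivirally expressed fusions sorted by FACS into six bins by GFP to DsRed ratio, PSI derived from sequencing read proportions per bin multiplied by bin number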
Classification field: enter label 1 for protein stability index values not below 5, label 0 for values below it.

- mutation-notation: "E20N"
  assigned-category: "label 0"
- mutation-notation: "L9N"
  assigned-category: "label 0"
- mutation-notation: "G16P"
  assigned-category: "label 0"
- mutation-notation: "E6F"
  assigned-category: "label 0"
- mutation-notation: "E5A"
  assigned-category: "label 0"
- mutation-notation: "A7D"
  assigned-category: "label 0"
- mutation-notation: "E20Y"
  assigned-category: "label 0"
- mutation-notation: "E15R"
  assigned-category: "label 0"
- mutation-notation: "F11Y"
  assigned-category: "label 1"
- mutation-notation: "Y1C"
  assigned-category: "label 1"
- mutation-notation: "F11C"
  assigned-category: "label 0"
- mutation-notation: "E22K"
  assigned-category: "label 0"
- mutation-notation: "E13H"
  assigned-category: "label 0"
- mutation-notation: "L8G"
  assigned-category: "label 1"
- mutation-notation: "Q2W"
  assigned-category: "label 0"
- mutation-notation: "L8W"
  assigned-category: "label 0"
- mutation-notation: "E13G"
  assigned-category: "label 0"
- mutation-notation: "R24F"
  assigned-category: "label 0"
